The origin of these recorded values is patent US20110065208A1.

- Assay Method Text: Brain lipid-water partition coefficient log MAbrain (membrane affinity) on immobilized brain lipid membranes
- Type: physicochemical
- Experimental Context: Table 1; PBS pH 7.4, quantified by HPLC
Readout: logMAbrain
Enter a number only.

Asked: Give me measured logMAbrain, please, for this compound: CN1CCN(CCCN2c3ccccc3Sc3ccc(C(F)(F)F)cc32)CC1
Given back: 4.70

Asked: Give me measured logMAbrain, please, for this compound: Clc1cccc(Cl)c1N=C1NCCN1
Given back: 1.30

Asked: Give me measured logMAbrain, please, for this compound: CN(C)CCCN1c2ccccc2Sc2ccc(Cl)cc21
Given back: 3.70

Asked: Give me measured logMAbrain, please, for this compound: Cn1c(=O)c2c(ncn2C)n(C)c1=O
Given back: 1.36

Asked: Give me measured logMAbrain, please, for this compound: CC(C)Cc1ccc(C(C)C(=O)O)cc1 (centres unmarked)
Given back: 1.70

Asked: Give me measured logMAbrain, please, for this compound: CN/C(=N/CCSCc1nc[nH]c1C)NC#N
Given back: 1.80

Asked: Give me measured logMAbrain, please, for this compound: C=C[C@H]1C[N@@]2CC[C@H]1C[C@@H]2[C@@H](O)c1ccnc2ccc(OC)cc12
Given back: 2.10

Asked: Give me measured logMAbrain, please, for this compound: Cc1cc(=O)n(-c2ccccc2)n1C [Antipyrine, antipyrine]
Given back: 1.33

----------
- Measurement Target: HSA (human serum albumin) (Homo sapiens)
- Sequence (P02768 25-609): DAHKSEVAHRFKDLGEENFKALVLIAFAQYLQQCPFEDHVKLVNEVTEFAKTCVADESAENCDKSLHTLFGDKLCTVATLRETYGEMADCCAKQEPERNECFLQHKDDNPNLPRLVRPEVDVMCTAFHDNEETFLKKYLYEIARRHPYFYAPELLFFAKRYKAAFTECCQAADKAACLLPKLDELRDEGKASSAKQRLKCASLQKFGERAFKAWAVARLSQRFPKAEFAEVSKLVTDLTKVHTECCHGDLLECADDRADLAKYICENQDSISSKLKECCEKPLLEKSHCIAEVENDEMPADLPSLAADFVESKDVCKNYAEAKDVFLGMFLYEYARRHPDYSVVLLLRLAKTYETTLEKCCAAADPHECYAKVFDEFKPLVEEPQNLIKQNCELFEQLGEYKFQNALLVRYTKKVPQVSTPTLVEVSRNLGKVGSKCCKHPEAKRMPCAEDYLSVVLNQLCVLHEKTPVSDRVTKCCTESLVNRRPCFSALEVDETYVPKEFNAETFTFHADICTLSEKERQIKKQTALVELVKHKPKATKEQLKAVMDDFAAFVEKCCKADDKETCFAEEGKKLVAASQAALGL
- Assay Method Text: HSA binding constants (TRANSIL HSA Binding Kit)
So I've got a bunch of molecules here, and I need their Kd values.
Give just the number in µM; leave the unit off.

Asked: Give me measured Kd, please, for this molecule: CN1CCN(CCCN2c3ccccc3Sc3ccc(C(F)(F)F)cc32)CC1
Given back: 12

Asked: Give me measured Kd, please, for this molecule: Cc1cc(=O)n(-c2ccccc2)n1C [Antipyrine, antipyrine]
Given back: 2700

Asked: Give me measured Kd, please, for this molecule: Clc1cccc(Cl)c1N=C1NCCN1
Given back: 1900

Asked: Give me measured Kd, please, for this molecule: CC(C)NCC(O)COc1cccc2ccccc12 (stereo not drawn)
Given back: 610

Asked: Give me measured Kd, please, for this molecule: CC(=O)Oc1ccccc1C(=O)O
Given back: 360

Asked: Give me measured Kd, please, for this molecule: CN/C(=N/CCSCc1nc[nH]c1C)NC#N
Given back: 920

Asked: Give me measured Kd, please, for this molecule: CNCCCN1c2ccccc2CCc2ccccc21
Given back: 200

Asked: Give me measured Kd, please, for this molecule: CN(C)CCCN1c2ccccc2CCc2ccccc21
Given back: 220

Asked: Give me measured Kd, please, for this molecule: CN(C)CCCN1c2ccccc2Sc2ccccc21
Given back: 99

----------
- Assay Method Text: log K^B/F, bound to free fraction in blood plasma calculated from KD^HSA and KD^AGP
- Format: in vitro ADME
- Experimental Context: Table 4; calculated with [HSA] 588.2 μM, [AGP] 24.4 μM
Recorded logK^B/F split into classes lower level: < 0.2; middle level: ≥ 0.2 and < 1; upper level: ≥ 1

Asked: Categorize the following entry: CN1CCN(CCCN2c3ccccc3Sc3ccc(C(F)(F)F)cc32)CC1 [Trifluoperazine, trifluoperazine]
Given back: upper level

Asked: Categorize the following entry: CC(C)Cc1ccc(C(C)C(=O)O)cc1 (stereo not shown) [Ibuprofen, ibuprofen]
Given back: upper level

Asked: Categorize the following entry: CC(=O)Oc1ccccc1C(=O)O [Acetylsalicylic acid, acetylsalicylic acid]
Given back: middle level

Asked: Categorize the following entry: O=C(O)c1ccccc1O [Salicylic acid, salicylic acid]
Given back: upper level

Asked: Categorize the following entry: COc1ccc2c(c1)c(CC(=O)O)c(C)n2C(=O)c1ccc(Cl)cc1 [Indomethacin, indomethacin]
Given back: upper level

Asked: Categorize the following entry: CC(C)NCC(O)COc1cccc2ccccc12 (stereo not shown) [Propranolol, propranolol]
Given back: middle level

Asked: Categorize the following entry: CN(C)CCCN1c2ccccc2Sc2ccccc21 [Promazine, promazine]
Given back: upper level

Asked: Categorize the following entry: Clc1cccc(Cl)c1N=C1NCCN1 [Clonidine, clonidine]
Given back: lower level

Asked: Categorize the following entry: Cc1cc(=O)n(-c2ccccc2)n1C [Antipyrine, antipyrine]
Given back: lower level

Asked: Categorize the following entry: CN/C(=N/CCSCc1nc[nH]c1C)NC#N [Cimetidine, cimetidine]
Given back: lower level
